Data origin: patent US20240254087A1

Target: 5-HT2B (Homo sapiens)
Sequence (P41595 whole entry): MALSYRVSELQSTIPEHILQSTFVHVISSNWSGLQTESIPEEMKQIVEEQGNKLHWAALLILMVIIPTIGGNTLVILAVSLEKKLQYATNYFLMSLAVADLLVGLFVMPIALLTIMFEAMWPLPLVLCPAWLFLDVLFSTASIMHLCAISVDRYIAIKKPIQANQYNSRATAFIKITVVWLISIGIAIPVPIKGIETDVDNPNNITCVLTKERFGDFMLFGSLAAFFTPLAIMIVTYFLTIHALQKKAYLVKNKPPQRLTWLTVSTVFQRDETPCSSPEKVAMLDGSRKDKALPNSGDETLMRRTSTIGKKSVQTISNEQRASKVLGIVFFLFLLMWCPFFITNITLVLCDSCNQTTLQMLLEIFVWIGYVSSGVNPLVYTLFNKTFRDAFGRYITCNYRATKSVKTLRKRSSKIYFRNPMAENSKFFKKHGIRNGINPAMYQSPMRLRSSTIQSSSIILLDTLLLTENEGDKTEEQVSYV
Experiment: BRET Gq dissociation, 5-HT2B
Assay type: cell-based
Set-up: expressed in transfected cells; host or cells: HEK293T, transient
Settings: read-out: 5-HT2B Gq Dissociation (BRET) EMAX ± SEM (%5-HT)
Description: After at least 18-24 hours, transfected cells were plated in poly-lysine coated 96-well white clear bottom cell culture plates in DMEM containing 1% dialyzed FBS at a density of 25-40,000 cells in 200 μL per well and incubated overnight. […] Fifteen minutes before reading, 10 μL of the RLuc substrate, either coelenterazine h for β-Arrestin recruitment BRET^1 or coelenterazine 400a for Gq dissociation BRET^2 (Prolume/Nanolight, 5 μM final concentration) was addedper well. […]
outcome_measure: Emax (%)
API: value field is a number in %; no unit string.

Examples with answers:
compound	system_tested	Emax, %
COc1cc(OC)c(OC)cc1CCNCc1ccccc1-c1ccco1	5-HT2B (Homo sapiens)	37.6
COc1cc(CC(C)N)c(OC)cc1I.Cl (racemic) [(±)-DOI, hydrochloride, reference compound]	5-HT2B (Homo sapiens)	103
COc1cc([N+](=O)[O-])c(OC)cc1CCNCc1ccccc1Cl [25N-NBCl (8)]	5-HT2B (Homo sapiens)	27

Problem: Supply Emax measured with 5-HT2B (Homo sapiens) for COc1cc([N+](=O)[O-])c(OC)cc1CCNCc1ccccc1-c1ccccc1 [25N-NBPh (17)] .
Solution: 47

Problem: Supply Emax measured with 5-HT2B (Homo sapiens) for COc1cc([N+](=O)[O-])c(OC)cc1CCN [2C-N (1), reference compound] .
Solution: 87.7

---

Target: 5-HT2A (Homo sapiens, UniProt P28223)
Sequence (P28223 whole entry): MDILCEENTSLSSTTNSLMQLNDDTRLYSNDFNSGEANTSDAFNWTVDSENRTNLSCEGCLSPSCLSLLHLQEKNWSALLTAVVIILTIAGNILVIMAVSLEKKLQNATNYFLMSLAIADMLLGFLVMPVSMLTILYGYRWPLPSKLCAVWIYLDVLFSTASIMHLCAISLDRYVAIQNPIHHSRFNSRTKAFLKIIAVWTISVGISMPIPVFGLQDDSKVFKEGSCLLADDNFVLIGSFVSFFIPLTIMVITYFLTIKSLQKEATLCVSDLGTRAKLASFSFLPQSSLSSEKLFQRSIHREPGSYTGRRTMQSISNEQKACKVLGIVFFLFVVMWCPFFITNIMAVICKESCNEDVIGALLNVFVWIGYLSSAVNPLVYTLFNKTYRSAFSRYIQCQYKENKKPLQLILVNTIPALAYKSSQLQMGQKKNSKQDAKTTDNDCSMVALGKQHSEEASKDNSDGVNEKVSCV
Experiment: NanoLuc internalization assay
Type: cell-based
Details: 60 min
outcome_measure: Internalization of 5-HT2A receptors

molecule	system_tested	outcome_measure	test_result
COc1cc([N+](=O)[O-])c(OC)cc1CCNCc1ccccc1OC [25N-NBOMe (4)]	5-HT2A (Homo sapiens, UniProt P28223)	Internalization of 5-HT2A receptors	strong internalization
COc1cc(CC(C)N)c(OC)cc1I.Cl (racemic) [(±)-DOI, reference compound]	5-HT2A (Homo sapiens, UniProt P28223)	Internalization of 5-HT2A receptors	strong internalization

---

Notes on Ki obtained with 5-HT7 (Homo sapiens, UniProt P34969).
Sequence (P34969 whole entry, species assumed): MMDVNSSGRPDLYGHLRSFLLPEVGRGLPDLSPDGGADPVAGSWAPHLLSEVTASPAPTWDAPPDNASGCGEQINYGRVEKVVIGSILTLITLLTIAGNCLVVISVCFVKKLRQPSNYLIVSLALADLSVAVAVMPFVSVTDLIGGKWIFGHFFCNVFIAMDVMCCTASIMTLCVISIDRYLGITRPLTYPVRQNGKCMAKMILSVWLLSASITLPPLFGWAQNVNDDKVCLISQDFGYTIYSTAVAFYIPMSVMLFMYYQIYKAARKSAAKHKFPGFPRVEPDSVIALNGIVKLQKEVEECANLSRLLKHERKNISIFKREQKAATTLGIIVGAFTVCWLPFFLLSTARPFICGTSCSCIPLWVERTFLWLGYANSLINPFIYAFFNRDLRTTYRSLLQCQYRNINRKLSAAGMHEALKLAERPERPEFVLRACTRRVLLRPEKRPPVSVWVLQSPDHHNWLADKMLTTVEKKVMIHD

compound	Ki
COc1cc([N+](=O)[O-])c(OC)cc1CCNCc1ccccc1C(F)(F)F [25N-NBCF3 (14)]	> 10 µM

Problem: // fetch Ki given entry COc1cc([N+](=O)[O-])c(OC)cc1CCNCc1cccc(F)c1OC [25N-NB-2-MeO-3-F (19)]
Solution: > 10 µM

---

Notes on Ki obtained with 5-HT5a (Homo sapiens, UniProt P47898).
Sequence (P47898 whole entry, species assumed): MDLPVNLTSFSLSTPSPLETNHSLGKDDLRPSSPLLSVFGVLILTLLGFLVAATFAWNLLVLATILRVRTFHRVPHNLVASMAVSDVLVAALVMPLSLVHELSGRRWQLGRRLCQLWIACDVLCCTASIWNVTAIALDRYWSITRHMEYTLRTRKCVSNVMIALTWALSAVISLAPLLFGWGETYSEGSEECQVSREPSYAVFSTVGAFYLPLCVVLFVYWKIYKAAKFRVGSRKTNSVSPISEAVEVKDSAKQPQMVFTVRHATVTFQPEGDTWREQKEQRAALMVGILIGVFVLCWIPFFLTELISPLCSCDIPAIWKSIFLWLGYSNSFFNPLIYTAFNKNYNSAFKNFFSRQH

Examples with answers:
compound	Ki
COc1cc([N+](=O)[O-])c(OC)cc1CCN [2C-N (1), reference compound]	> 10 µM
COc1cc([N+](=O)[O-])c(OC)cc1CCNCc1ccccc1[N+](=O)[O-] [25N-NBNO2 (15)]	> 10 µM
COc1cc([N+](=O)[O-])c(OC)cc1CCNCc1cccc(F)c1OC [25N-NB-2-MeO-3-F (19)]	2.88 µM
COc1ccc(OC)c(CNCCc2cc(OC)c([N+](=O)[O-])cc2OC)c1 [25N-NB-2,5-DiMeO (20)]	> 10 µM
COc1cc([N+](=O)[O-])c(OC)cc1CCNCc1ccccc1C(F)(F)F [25N-NBCF3 (14)]	> 10 µM

Problem: Supply Ki measured with 5-HT5a (Homo sapiens, UniProt P47898) for COc1cc([N+](=O)[O-])c(OC)cc1CCNCc1ccccc1OC [25N-NBOMe (4)] .
Solution: > 10 µM

Problem: Supply Ki measured with 5-HT5a (Homo sapiens, UniProt P47898) for COc1cc([N+](=O)[O-])c(OC)cc1CCNCc1cccc(O)c1 [25N-NB-3-OH (21)] .
Solution: > 10 µM

Problem: Supply Ki measured with 5-HT5a (Homo sapiens, UniProt P47898) for COc1cc([N+](=O)[O-])c(OC)cc1CCNCc1cccc2ccccc12 [25N-N-1-Nap (16)] .
Solution: 1.1 µM

Problem: Supply Ki measured with 5-HT5a (Homo sapiens, UniProt P47898) for COc1cc([N+](=O)[O-])c(OC)cc1CCNCc1ccccc1I [25N-NBI (10)] .
Solution: > 10 µM

Problem: Supply Ki measured with 5-HT5a (Homo sapiens, UniProt P47898) for COc1cc([N+](=O)[O-])c(OC)cc1CCNCc1cccc(C)c1O [25N-NB-2-OH-3-Me (18)] .
Solution: 0.501 µM
